Ref: PubChem BioAssay

protocol description: basal HepG2 mitochondrial membrane potential changes, profiling panel, cell-based, JC-1 fluorescence, 24 h, 100 nL compound (AID 1167); further: test concentration not given here
condition parameters: higher = more signal
Below, each entry is listed with its recorded z-score.
measurement label: z-score

> print(dat)
                                   compound  readout.number
1  C=CCNC(=O)[C@@H]1[C@H]2C(=O)O[C@H](c3ccccc3)[C@H](c3ccccc3)N2[C@H](c2ccc(OCCO)cc2)[C@@]12C(=O)Nc1ccc(C#CCCO)cc12             1.1
2  CCCC#C[Si](O[C@H](CC)c1cn([C@H](CO)Cc2ccccc2)nn1)(C(C)C)C(C)C          -0.371
3  CN1C2C=C(CCCO)C(C3C(=O)N(C(N)=O)C(=O)C32)C1c1ccc(CN2CCCC2)cc1 (stereo not drawn)          -0.208
